// data source = patent US9670212B2

// reported IC50 for each item listed
molecular target: PI3K delta (Homo sapiens (Human)); experiment: Luciferase-coupled chemiluminescence kinase assay (KinaseGlo, ATP consumption)

Worked examples follow.
1) Cc1cccc2cc(CNC(=O)c3nccnc3N)c(NCCCN(C)C)nc12 0.5 to 1.5 µM
2) Cc1cccc2cc(CNC(=O)c3nccnc3N)c(N(C)CCN(C)C(=O)Cn3ccnc3C)nc12 < 0.05 µM
3) Cc1cccc2cc(CNC(=O)c3nccnc3N)c(N(C)CCN(C)C(=O)Cn3nccn3)nc12 0.05 to 0.25 µM

Query: IC50 lookup needed for CNCCCN(C)c1nc2c(C)cccc2cc1CNC(=O)c1nccnc1N , thanks.
Response: 0.05 to 0.25 µM

Query: IC50 for Cc1ccccc1-n1c(CNC(=O)c2nccnc2N2CCOCC2)nc2cccc(C)c2c1=O ?
Response: 0.5 to 1.5 µM

Query: What value of IC50 has been reported for the following compound? Cc1cccc2cc(CNC(=O)c3nccnc3N)c(N(Cc3ccccn3)Cc3ccccn3)nc12
Response: 0.5 to 1.5 µM

Query: # get_value(readout='IC50', item= CNCC(=O)N(C)CCN(C)c1nc2c(C)cccc2cc1CNC(=O)c1nccnc1N )
Response: 0.05 to 0.25 µM

Query: Return reported IC50; argument: Cc1cccc2cc(CNC(=O)c3nccnc3N)c(N(C)CCN(C)CC#N)nc12
Response: 0.05 to 0.25 µM

----------
target: PI3K delta (Homo sapiens (Human)); test: Luciferase-coupled chemiluminescence kinase assay (KinaseGlo, ATP consumption)
pIC50: −log10 of the molar value.
Measurement kind: pIC50

Query: Given Cc1cccc2cc(CNC(=O)c3nccnc3N)c(N(C)CCN(C)C(=O)CN(C)C)nc12 , state its recorded pIC50.
Response: 6.60 to 7.30

Query: Look at this compound and give its reported pIC50. Cc1cccc2cc(CNC(=O)c3nccnc3N)c(N(C)CCN(C)C(=O)Cn3cnnn3)nc12
Response: > 7.30

Query: For the compound shown here, Cc1ccccc1-c1cc2ccccc2nc1C(C)NC(=O)c1nccnc1N (centres unmarked) , give the reported pIC50.
Response: 6.30 to 6.60

----------
Catalogue of pIC50 values
target: PI3K delta (Homo sapiens (Human), UniProt O00329); experiment: Luciferase-coupled chemiluminescence kinase assay (KinaseGlo, ATP consumption)
Sequence (O00329 whole entry): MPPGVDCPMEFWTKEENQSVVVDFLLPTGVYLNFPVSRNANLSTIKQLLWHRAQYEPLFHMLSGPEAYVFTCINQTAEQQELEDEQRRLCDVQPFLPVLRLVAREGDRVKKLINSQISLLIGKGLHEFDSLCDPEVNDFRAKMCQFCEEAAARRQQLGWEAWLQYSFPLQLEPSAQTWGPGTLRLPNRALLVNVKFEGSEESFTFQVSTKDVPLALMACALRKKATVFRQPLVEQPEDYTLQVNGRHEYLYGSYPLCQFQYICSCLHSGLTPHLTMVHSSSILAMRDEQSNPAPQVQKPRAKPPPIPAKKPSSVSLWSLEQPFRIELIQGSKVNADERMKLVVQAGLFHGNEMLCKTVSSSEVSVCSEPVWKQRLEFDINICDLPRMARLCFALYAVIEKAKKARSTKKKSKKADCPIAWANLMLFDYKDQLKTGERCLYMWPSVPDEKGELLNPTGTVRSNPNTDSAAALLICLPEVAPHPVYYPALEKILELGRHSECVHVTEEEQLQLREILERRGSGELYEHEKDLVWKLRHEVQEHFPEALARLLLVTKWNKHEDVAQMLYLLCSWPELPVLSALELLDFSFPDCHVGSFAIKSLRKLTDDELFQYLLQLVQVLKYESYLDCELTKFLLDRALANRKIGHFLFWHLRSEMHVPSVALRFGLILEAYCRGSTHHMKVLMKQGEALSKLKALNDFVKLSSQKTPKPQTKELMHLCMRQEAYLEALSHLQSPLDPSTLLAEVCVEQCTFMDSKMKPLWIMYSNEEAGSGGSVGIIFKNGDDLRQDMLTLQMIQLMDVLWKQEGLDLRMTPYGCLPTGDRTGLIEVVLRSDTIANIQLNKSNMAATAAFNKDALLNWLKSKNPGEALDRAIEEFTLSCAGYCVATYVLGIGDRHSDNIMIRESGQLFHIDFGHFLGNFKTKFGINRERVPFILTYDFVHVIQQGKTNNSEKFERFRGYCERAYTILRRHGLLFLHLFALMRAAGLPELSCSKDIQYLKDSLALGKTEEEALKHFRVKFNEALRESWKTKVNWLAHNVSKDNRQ
Sequence (P27986 whole entry partner): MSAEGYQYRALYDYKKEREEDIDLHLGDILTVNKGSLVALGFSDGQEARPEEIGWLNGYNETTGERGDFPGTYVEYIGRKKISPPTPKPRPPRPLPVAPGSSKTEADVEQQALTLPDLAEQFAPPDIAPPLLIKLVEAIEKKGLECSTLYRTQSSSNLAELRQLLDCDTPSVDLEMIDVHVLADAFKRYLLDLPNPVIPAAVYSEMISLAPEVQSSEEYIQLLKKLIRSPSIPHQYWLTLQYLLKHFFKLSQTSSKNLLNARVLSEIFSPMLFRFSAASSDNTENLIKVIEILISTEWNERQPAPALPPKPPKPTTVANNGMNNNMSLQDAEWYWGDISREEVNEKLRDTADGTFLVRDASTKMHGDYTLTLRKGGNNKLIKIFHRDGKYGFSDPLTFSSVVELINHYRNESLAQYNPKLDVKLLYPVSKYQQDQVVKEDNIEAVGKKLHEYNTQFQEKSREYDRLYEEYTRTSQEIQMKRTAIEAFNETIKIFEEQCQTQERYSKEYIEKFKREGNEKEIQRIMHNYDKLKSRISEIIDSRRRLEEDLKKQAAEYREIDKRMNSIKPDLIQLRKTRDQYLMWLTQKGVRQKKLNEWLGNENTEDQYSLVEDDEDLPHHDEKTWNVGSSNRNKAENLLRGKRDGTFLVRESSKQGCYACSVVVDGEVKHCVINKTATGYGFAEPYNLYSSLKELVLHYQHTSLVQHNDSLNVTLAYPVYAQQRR
pIC50: −log10 of the molar value.

Before answering, review these 3 worked examples.
Compound	Measurement kind	Recorded measurement
Nc1nccnc1C(=O)NCc1nc2ccccc2cc1-c1ccc(CN2CCOCC2)cc1	pIC50	5.82 to 6.30
Cc1ccccc1-c1nc2c(C)cccc2cc1Cn1nc(I)c2c(N)ncnc21	pIC50	> 7.30
Cc1cccc2cc(Cn3cnc4c(N)ncnc43)c(N3CCCC3C)nc12 (stereo not shown)	pIC50	6.60 to 7.30

Please turn your attention to the following entry.
Query: Returns the measured pIC50 for the input compound. Input: Cc1cccc2cc(Cn3cnc4c(N)ncnc43)c(NS(=O)(=O)c3ccccc3)nc12
Response: 5.82 to 6.30

----------
pIC50 reference
biological target: PI3K delta (Homo sapiens (Human), UniProt O00329); test: Luciferase-coupled chemiluminescence kinase assay (KinaseGlo, ATP consumption); type: biochemical
pIC50: −log10 of the molar value.

Compound	Recorded measurement
CC(=O)N1CCN(c2nc3c(C)cccc3cc2CNc2ncnc3[nH]cnc23)CC1 [Compound 143]	> 7.30
Cc1ccccc1-c1cc2ccccc2nc1C(C)n1nc(I)c2c(N)ncnc21 (centres unmarked) [Compound 117]	> 7.30
Cc1cccc2cc(CNC(=O)c3nccnc3N)c(-n3cnc4ccccc43)nc12 [Compound 112]	5.82 to 6.30
Cc1ccccc1-n1c(CNC(=O)c2nc(Br)cnc2N)nc2cccc(C)c2c1=O [Compound 160]	5.82 to 6.30
Cc1ccccc1-c1nc2ccccc2cc1Cn1cnc2c(N)ncnc21 [Compound 191]	5.82 to 6.30

Query: Reported pIC50 for CNCCN(C)c1nc2c(C)cccc2cc1CNC(=O)c1nccnc1N [Compound 130] : what is it?
Response: 6.30 to 6.60

Query: Please report the recorded pIC50 for Cc1cccc2cc(CNC(=O)c3nccnc3N)c(N(C)CC3CCCCN3C)nc12 (centres unmarked) [Compound 39] .
Response: > 7.30

Query: So what does the record say about pIC50 for Cc1cccc2cc(CNC(=O)c3nccnc3N)c(N3CCCN(C(=O)Cn4ccnc4)CC3)nc12 [Compound 54] ?
Response: 5.82 to 6.30

Query: Form field: reported pIC50 of CNC(=O)CN(C)CCN(C)c1nc2c(C)cccc2cc1CNC(=O)c1nccnc1N [Compound 76]
Response: 6.60 to 7.30

Query: Find the recorded pIC50 belonging to COc1cccc(-c2nc3c(C)cccc3cc2Cn2cnc3c(N)ncnc32)c1 [Compound 185] and report it.
Response: 6.30 to 6.60

Query: Look at this compound and give its reported pIC50. CNCCN(C)c1nc2c(C)cccc2cc1CNc1ccc(OC)cc1 [Compound 20]
Response: 5.82 to 6.30

Query: Look up pIC50: Cc1ccccc1-c1cc2ccccc2nc1CNC(=O)c1ncc(Cl)nc1N [Compound 107]
Response: 5.82 to 6.30

Query: Please give the measured pIC50 for this compound: Cc1ccccc1-n1c(CNC(=O)c2cccnc2N)nc2cccc(C)c2c1=O [Compound 176]
Response: 5.82 to 6.30

Query: // lookup pIC50 for Cc1ccc(CN2CCCN(c3nc4c(C)cccc4cc3CNC(=O)c3nccnc3N)CC2)o1 [Compound 58]
Response: 5.82 to 6.30

Query: Consider the compound shown here: CNCCN(C)c1nc2c(C)cccc2cc1CN1CCOCC1 [Compound 21] What is its recorded pIC50?
Response: 5.82 to 6.30

Query: I would be grateful if you could share the reported pIC50 for Cc1cccc2cc(CNC(=O)c3nccnc3N)c(N(C)CCN(C)S(C)(=O)=O)nc12 [Compound 101] .
Response: 6.60 to 7.30

Query: So what does the record say about pIC50 for Cc1ccccc1-c1c(Cn2cnc3c(N)ncnc32)nc2ccccc2c1C [Compound 168] ?
Response: 5.82 to 6.30

Query: Would you mind telling me what pIC50 value was observed for Cc1cccc2cc(CNc3ncnc4[nH]cnc34)c(N(C)CCN(C)C(=O)Cn3ccnn3)nc12 [Compound 35] ?
Response: > 7.30

Query: Would you kindly share the measured pIC50 for CCN1CCN(c2nc3c(C)cccc3cc2CNc2ncnc3[nH]cnc23)CC1 [Compound 144] ?
Response: > 7.30

Query: Fill in: pIC50 of Cc1cccc2cc(CNC(=O)c3nccnc3N)c(N(C)CCN(C)C(=O)c3ccccn3)nc12 [Compound 81] is ___
Response: 6.30 to 6.60

----------
target: PI3K delta (Homo sapiens (Human)); assay: Luciferase-coupled chemiluminescence kinase assay (KinaseGlo, ATP consumption)
pIC50: −log10 of the molar value.
Below is a list of entries, each paired with its recorded pIC50 value.

Query: So what does the record say about pIC50 for Cc1cccc2cc(CNC(=O)c3nccnc3N)c(N3CCC(NCC(=O)N(C)C)C3)nc12 (centres unmarked) ?
Response: 5.82 to 6.30

----------
Below is a list of entries, each paired with its recorded pIC50 value.
target: PI3K delta (Homo sapiens (Human), UniProt O00329); experiment: Luciferase-coupled chemiluminescence kinase assay (KinaseGlo, ATP consumption)
pIC50: −log10 of the molar value.

Some solved cases for reference:
Molecule	pIC50
Cc1ccccc1-n1c(CNC(=O)c2ccnc(N)c2)nc2cccc(C)c2c1=O [Compound 174]	5.82 to 6.30
Cc1cccc2cc(CNC(=O)c3nccnc3N)c(N(C)CCN(C)C(=O)c3cncn3C)nc12 [Compound 110]	6.60 to 7.30
Nc1nccnc1C(=O)NCc1nc2ccccc2cc1-c1ccccc1CN1CCOCC1 [Compound 70]	6.30 to 6.60

Query: What is its pIC50 for PI3K delta (Homo sapiens (Human), UniProt O00329)? Entry: Cc1cccc2cc(Cn3cnc4c(N)ncnc43)c(-c3ccccc3C(F)(F)F)nc12 [Compound 182]
Response: 6.60 to 7.30

Query: Record Cc1cccc2cc(CNc3ncnc4[nH]cnc34)c(N(C)CC3CCN(C)CC3)nc12 [Compound 33] : what is its pIC50 with PI3K delta (Homo sapiens (Human), UniProt O00329)?
Response: > 7.30

Query: # get_value(readout= pIC50, system= PI3K delta (Homo sapiens (Human), UniProt O00329)) for Cc1ccccc1-c1nc2ccccc2nc1Cn1cnc2c(N)ncnc21 [Compound 190]
Response: 5.82 to 6.30

Query: Hello, I am looking for reported pIC50 with PI3K delta (Homo sapiens (Human), UniProt O00329) for Cc1cccc2cc(CNC(=O)c3nccnc3N)c(N(C)CCN(C)C(=O)[C@H]3CCCN3C(C)C)nc12 [Compound 73] . Could you help?
Response: > 7.30

Query: Notebook: pull reported pIC50 for PI3K delta (Homo sapiens (Human), UniProt O00329), entry Cc1cccc(-c2nc3c(C)cccc3cc2Cn2cnc3c(N)ncnc32)c1C [Compound 180]
Response: 5.82 to 6.30

Query: # get_value(readout= pIC50, system= PI3K delta (Homo sapiens (Human), UniProt O00329)) for Cc1ccccc1-c1cc2ccccc2nc1CNC(=O)c1ncc(N2CCOCC2)nc1N [Compound 105]
Response: 5.82 to 6.30

Query: Please tell me: pIC50 of Cc1cccc2cc(CNC(=O)c3nccnc3N)c(N3CCC(N(C)C)CC3)nc12 [Compound 127] , system PI3K delta (Homo sapiens (Human), UniProt O00329)?
Response: 5.82 to 6.30

Query: Param readout = pIC50; param system = PI3K delta (Homo sapiens (Human), UniProt O00329); param query = Cc1cccc2cc(CNC(=O)c3nccnc3N)c(N(C)CCN(C)C)nc12 [Compound 128] ; response: value
Response: > 7.30

Query: # query: pIC50 | item COc1ccccc1NCc1cc2cccc(C)c2nc1-c1ccccc1Cl [Compound 11] | system: PI3K delta (Homo sapiens (Human), UniProt O00329)
Response: 5.82 to 6.30

Query: Lab note: need pIC50 for Cc1ccccc1-c1cc2ccccc2cc1Cn1cnc2c(N)ncnc21 [Compound 120] on PI3K delta (Homo sapiens (Human), UniProt O00329), anyone have it?
Response: 5.82 to 6.30
